Reported GI50 values are given for each entry in this list.
System: MDA-MB-435
Test: NCI tumour cell line growth inhibition, 48 h
Activity calls are given as the source filed them. Cut-off read from the data, not from the text of the source: active = GI50 up to about 1.1 µM and inactive = higher.

Solved entries:
{"molecule": "COc1cc(C(=O)/C=C/c2ccc(OCCSCCCCCCCCCCSCCOc3ccc(/C=C/C(=O)c4cc(OC)c(OC)c(OC)c4)cc3)cc2)cc(OC)c1OC", "result": "> 100 µM (inactive)"}
{"molecule": "CC(C)(C)OC(=O)N1CCCC1C(=O)NCCNc1ccc(NCCNC(=O)C2CCCN2C(=O)OC(C)(C)C)c2c1C(=O)c1ccccc1C2=O (centres undefined)", "result": "14.1 µM (inactive)"}
{"molecule": "CCOC(=O)CC1(Cc2ccc(OCc3ccccc3)cc2)C(=O)OC(c2ccccc2)N1C(=O)c1ccccc1 (centres undefined)", "result": "> 100 µM (inactive)"}

Lookup: Given the molecule CC(C)=C=CP(=O)(O)c1ccccc1 , what is its reported GI50?
Found: > 100 µM (inactive)
